system: CCRF-HSB2; assay: selective drug sensitivity score (sDSS, relative to normal bone marrow) (sDSS (score)); higher = more potent and effective on the cell line relative to normal bone marrow cells; conditions: 72 h;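 also: ALL cell lines in 384-well plates, five doses spanning 10,000-fold, each plate scaled between vehicle and 100 µmol/L benzalkonium chloride controls, sDSS an adapted area-under-curve metric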
Entries annotated with measured selective drug sensitivity score
Parameter: selective drug sensitivity score

{"Compound": "O=C(/C=C/c1cccc(S(=O)(=O)Nc2ccccc2)c1)NO [Belinostat] (top concentration 10000 nM)", "Parameter": "selective drug sensitivity score", "Obs Value": 10.2}
{"Compound": "CCOc1ccn(-c2ccc(F)cc2)c(=O)c1C(=O)Nc1ccc(Oc2ccnc(N)c2Cl)c(F)c1 (top concentration 2500 nM)", "Parameter": "selective drug sensitivity score", "Obs Value": 3.2}
{"Compound": "COC12C(COC(N)=O)C3=C(C(=O)C(C)=C(N)C3=O)N1CC1NC12 (stereo in doubt) [Mitomycin_C] (top concentration 10000 nM)", "Parameter": "selective drug sensitivity score", "Obs Value": -2.86}
{"Compound": "Cc1sc2c(c1C)C(c1ccc(Cl)cc1)=N[C@@H](CC(=O)NCCCCNC(=O)COc1cccc3c1C(=O)N(C1CCC(=O)NC1=O)C3=O)c1nnc(C)n1-2 (some centres not stated) [dBET1] (top concentration 10000 nM)", "Parameter": "selective drug sensitivity score", "Obs Value": 2.12}
{"Compound": "O=C(O)c1ccc(CN2CCC(CN[C@@H]3C[C@H]3c3ccccc3)CC2)cc1 (top concentration 100000 nM)", "Parameter": "selective drug sensitivity score", "Obs Value": -0.12}
{"Compound": "Cc1ncc(Cl)cc1NCc1ccc(C(=O)N[C@@H](CC2CCCC2)C(=O)NC2CC2)s1 (top concentration 5000 nM)", "Parameter": "selective drug sensitivity score", "Obs Value": 0.66}
{"Compound": "CNc1ncc2cc(-c3cc(NC(=O)NCCC(C)(C)C)c(F)cc3C)c(C)nc2n1 (top concentration 10000 nM)", "Parameter": "selective drug sensitivity score", "Obs Value": 20.2}
